# target_desc: T1, PUF4 RNA-binding domain (Saccharomyces cerevisiae, UniProt P25339 537-888)
# T1 sequence: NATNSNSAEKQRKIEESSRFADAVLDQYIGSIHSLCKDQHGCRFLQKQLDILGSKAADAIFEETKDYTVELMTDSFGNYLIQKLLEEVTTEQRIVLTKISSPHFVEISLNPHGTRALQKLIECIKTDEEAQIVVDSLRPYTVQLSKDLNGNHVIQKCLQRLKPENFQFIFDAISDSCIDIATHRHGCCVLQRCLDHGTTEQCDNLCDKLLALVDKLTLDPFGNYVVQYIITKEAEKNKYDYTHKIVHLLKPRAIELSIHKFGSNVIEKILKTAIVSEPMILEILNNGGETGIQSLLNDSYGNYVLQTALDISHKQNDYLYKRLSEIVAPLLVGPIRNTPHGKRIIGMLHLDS
# method_notes: Mg; RNA-MaP; 20 mM Na-HEPES pH 7.4, 30 mM KOAc, 0.75 mM MgCl2, 0.1% Tween-20, 5% glycerol, 0.1 mg/mL BSA, 2 mM DTT; 25 C; 0.0125-409.6 nM protein
# run_conditions: tags: N-His6-TEV cleaved; C-SNAP kept, Cy3B-labelled; label: tethered on chip by stalled RNA polymerase
pKd: −log10 of the molar value.
# label = rule met if pKd >= 7 else rule not met

Ib_S4_P5E.1_K5.1_C5.1_H5.1_A5.1_[T5C]_[T6C]_F5.1_T5.1 (ssRNA) RNA: UUUGACAACUGAUCGUUCUUUCUUGUACCAUUAUUCUUUCUCGAUCAGUUGUCUUU	rule met
Id_ii_S4_P3E.2_K3.1_C3.2_[C-2G]_H3.1_A3.1_F3.1_T3.2 (ssRNA) RNA: UUUGACAACUGAUCGUUCUUUCUGUUGUAUAUAUAUUCUUUCUCGAUCAGUUGUCUUU	rule met
Ic_S4_P4E.1_K4.1_C4.1_H4.1_A4.1_[A6C]_F4.1_[T8A]_[A9C]_T4.1 (ssRNA) RNA: UUUGACAACUGAUCGUUCUUUCUUGUAUCUACUUCUUUCUCGAUCAGUUGUCUUU	rule met
Id_ii_S4_P3E.2_K3.1_C3.2_[C-2T]_[T-1G]_H3.1_A3.1_F3.1_T3.2_[T9A]_[A10T] (ssRNA) RNA: UUUGACAACUGAUCGUUCUUUCUUGUGUAUAUAAUUUCUUUCUCGAUCAGUUGUCUUU	rule met
Ic_S4_P5E.1_K5.1_C5.1_H5.1_A5.1_[T5C]_[A7T]_F5.1_[T8C]_T5.1 (ssRNA) RNA: UUUGACAACUGAUCGUUCUUUCUUGUACUUCUAUUCUUUCUCGAUCAGUUGUCUUU	rule met

-- ask Is reported pKd greater than or equal to 7 here: UCUCUUUGUACUGUAAUCUCUU (ssRNA) [Ic_S1_P5E.1_K5.1_C5.1_H5.1_A5.1_[T5C]_[A7G]_F5.1_[T9A]_T5.1]
-- reply rule met

-- ask Has ACAAACCAACACUAUUAAGACAAAC (ssRNA) [Id_ii_S3_P4E.4_K4.3_C4.2_[T-1A]_H4.3_A4.1_F4.1_T4.2_[G10A]_[T11G]] a recorded pKd greater than or equal to 7?
-- reply rule not met

-- ask Confirm if pKd reported for the binder UCUCUUUCAUAUAUAUAUAUCUCUU (ssRNA) [Id_iii_S1_P3E.6_K3.2_C3.3_[T-1A]_H3.2_A3.1_F3.1_T3.2] is 7 or above.
-- reply rule not met

-- ask Threshold query (pKd >= 7) on UCUCUUUGUAGCAUCAUCUCUU (ssRNA) [Ic_S1_P5E.1_K5.1_C5.1_H5.1_A5.1_[T5G]_[T6C]_F5.1_[T9C]_T5.1]
-- reply rule not met

Values compiled from paper PMC9352680.
